All values here come from ChEMBL document CHEMBL1139946.

# TEST TARGET: Angiopoietin-1 receptor (Homo sapiens) (UniProt Q02763)
# Sequence (Q02763 whole entry): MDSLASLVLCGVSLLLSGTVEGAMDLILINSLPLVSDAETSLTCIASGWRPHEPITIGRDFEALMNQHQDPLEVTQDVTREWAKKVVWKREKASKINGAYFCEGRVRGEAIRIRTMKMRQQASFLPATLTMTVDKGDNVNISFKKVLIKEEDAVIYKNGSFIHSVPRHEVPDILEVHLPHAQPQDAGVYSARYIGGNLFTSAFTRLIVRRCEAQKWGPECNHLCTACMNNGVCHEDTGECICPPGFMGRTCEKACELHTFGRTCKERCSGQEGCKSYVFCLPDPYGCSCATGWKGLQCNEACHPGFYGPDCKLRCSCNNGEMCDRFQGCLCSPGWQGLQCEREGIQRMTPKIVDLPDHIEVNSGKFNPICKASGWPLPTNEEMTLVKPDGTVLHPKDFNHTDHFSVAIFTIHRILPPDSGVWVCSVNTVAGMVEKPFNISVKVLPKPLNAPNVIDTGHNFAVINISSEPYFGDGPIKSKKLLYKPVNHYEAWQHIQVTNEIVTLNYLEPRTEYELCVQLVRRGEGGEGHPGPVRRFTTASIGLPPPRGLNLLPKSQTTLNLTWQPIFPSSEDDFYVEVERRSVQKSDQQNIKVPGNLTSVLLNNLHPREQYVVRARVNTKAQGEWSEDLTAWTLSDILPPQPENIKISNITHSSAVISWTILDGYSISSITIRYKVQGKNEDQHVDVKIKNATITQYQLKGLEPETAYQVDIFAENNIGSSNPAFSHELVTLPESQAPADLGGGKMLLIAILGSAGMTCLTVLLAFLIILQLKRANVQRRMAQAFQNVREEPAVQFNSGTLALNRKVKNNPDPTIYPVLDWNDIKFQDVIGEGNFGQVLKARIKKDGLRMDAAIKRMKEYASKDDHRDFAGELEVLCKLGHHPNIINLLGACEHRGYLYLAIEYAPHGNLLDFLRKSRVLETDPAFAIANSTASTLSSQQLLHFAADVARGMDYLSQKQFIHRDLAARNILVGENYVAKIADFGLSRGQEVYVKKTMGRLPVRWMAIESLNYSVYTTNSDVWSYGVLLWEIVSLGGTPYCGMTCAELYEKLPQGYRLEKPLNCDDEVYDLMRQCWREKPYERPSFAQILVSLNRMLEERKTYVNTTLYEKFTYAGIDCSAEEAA
# EXPERIMENT: Inhibition of TIE2 at 10 uM
ASSAY ENDPOINT: inhibition

These solved cases illustrate the format of a correct answer.
ITEM SMILES	ASSAY ENDPOINT	OBSERVED RESULT
O=C1Cc2cnn(-c3ccc(C(F)(F)F)cc3)c2-c2ccccc2N1	inhibition	< 40%
O=C1Cc2cnn(-c3cccc(Cl)c3)c2-c2ccccc2N1	inhibition	< 40%
O=C1Cc2cnn(-c3cc(Cl)cc(Cl)c3)c2-c2ccccc2N1	inhibition	< 40%

Each compound below has a reported value. Please supply its inhibition.
1. Cc1ccccc1-n1ncc2c1-c1ccccc1NC(=O)C2
2. O=C1Cc2cnn(-c3ccccc3)c2-c2ccccc2N1
3. O=C1Cc2cnn(-c3ccc([N+](=O)[O-])cc3)c2-c2ccccc2N1
4. O=C1Cc2cnn(-c3ccccc3F)c2-c2ccccc2N1

Reply:
< 40%
< 40%
< 40%
< 40%

Each compound below has a reported value. Please supply its inhibition.
1. CC(C)(C)c1ccc(-n2ncc3c2-c2ccccc2NC(=O)C3)cc1
2. Cc1ccc(-n2ncc3c2-c2ccccc2NC(=O)C3)cc1
3. COc1ccc(-n2ncc3c2-c2ccccc2NC(=O)C3)cc1
4. O=C1Cc2cnn(-c3ccccc3Cl)c2-c2ccccc2N1

Reply:
< 40%
< 40%
< 40%
< 40%

---

For each of the compounds below, state its growth, % of control at 100 µM.
# Test system: MCF7
# EXPERIMENT: Antiproliferative activity against human MCF7 cells at 100 uM after 48 hrs relative to control
# Assay type: functional
# CONDITIONS USED: MCF7, 48 h
Answers are plain numbers, in %.

Each compound below has a reported value. Please supply its growth, % of control at 100 µM.
1. O=C1Cc2cnn(-c3cccc(Cl)c3)c2-c2ccccc2N1
2. O=C1Cc2cnn(-c3ccc(Cl)cc3)c2-c2ccccc2N1
3. COc1ccc(-n2ncc3c2-c2ccccc2NC(=O)C3)cc1
4. Cc1ccc(-n2ncc3c2-c2ccccc2NC(=O)C3)cc1
5. O=C1Cc2cnn(-c3cc(Cl)cc(Cl)c3)c2-c2ccccc2N1
6. O=C1Cc2cnn(-c3ccc([N+](=O)[O-])cc3)c2-c2ccccc2N1

Reply:
1: 64; 2: 54; 3: 60; 4: 57; 5: 40; 6: 55

---

# TEST TARGET: Cyclin-dependent kinase 4 (Homo sapiens)
# Sequence (P11802 whole entry): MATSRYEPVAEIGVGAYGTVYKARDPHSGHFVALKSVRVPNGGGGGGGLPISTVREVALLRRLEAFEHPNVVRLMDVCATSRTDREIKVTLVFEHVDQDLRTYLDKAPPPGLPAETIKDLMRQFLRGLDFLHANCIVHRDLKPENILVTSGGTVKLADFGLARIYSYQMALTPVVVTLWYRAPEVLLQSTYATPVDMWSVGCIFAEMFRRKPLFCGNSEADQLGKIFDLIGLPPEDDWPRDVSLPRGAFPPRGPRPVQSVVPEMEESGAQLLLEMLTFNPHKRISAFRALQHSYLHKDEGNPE
pIC50: −log10 of the molar value.
ASSAY ENDPOINT: pIC50

Query: Item O=C1Cc2cnn(-c3cccc(Cl)c3)c2-c2ccccc2N1 has what recorded pIC50?
Reply: < 5.00

---

# Species on record: Homo sapiens
# EXPERIMENT: Inhibition of CK2-alpha1 at 10 uM
For each of the compounds below, state its inhibition.

These solved cases illustrate the format of a correct answer.
ITEM SMILES	OBSERVED RESULT
O=C1Cc2cnn(-c3ccc([N+](=O)[O-])cc3)c2-c2ccccc2N1	< 40%
O=C1Cc2cnn(-c3ccc(C(F)(F)F)cc3)c2-c2ccccc2N1	< 40%

Now for a further compound.
Query: Item O=C1Cc2cnn(-c3ccccc3Cl)c2-c2ccccc2N1 has what recorded inhibition?
Reply: < 40%

---

# TEST TARGET: Focal adhesion kinase 1 (Homo sapiens) (UniProt Q05397)
# Sequence (Q05397 2-1052 limits assumed): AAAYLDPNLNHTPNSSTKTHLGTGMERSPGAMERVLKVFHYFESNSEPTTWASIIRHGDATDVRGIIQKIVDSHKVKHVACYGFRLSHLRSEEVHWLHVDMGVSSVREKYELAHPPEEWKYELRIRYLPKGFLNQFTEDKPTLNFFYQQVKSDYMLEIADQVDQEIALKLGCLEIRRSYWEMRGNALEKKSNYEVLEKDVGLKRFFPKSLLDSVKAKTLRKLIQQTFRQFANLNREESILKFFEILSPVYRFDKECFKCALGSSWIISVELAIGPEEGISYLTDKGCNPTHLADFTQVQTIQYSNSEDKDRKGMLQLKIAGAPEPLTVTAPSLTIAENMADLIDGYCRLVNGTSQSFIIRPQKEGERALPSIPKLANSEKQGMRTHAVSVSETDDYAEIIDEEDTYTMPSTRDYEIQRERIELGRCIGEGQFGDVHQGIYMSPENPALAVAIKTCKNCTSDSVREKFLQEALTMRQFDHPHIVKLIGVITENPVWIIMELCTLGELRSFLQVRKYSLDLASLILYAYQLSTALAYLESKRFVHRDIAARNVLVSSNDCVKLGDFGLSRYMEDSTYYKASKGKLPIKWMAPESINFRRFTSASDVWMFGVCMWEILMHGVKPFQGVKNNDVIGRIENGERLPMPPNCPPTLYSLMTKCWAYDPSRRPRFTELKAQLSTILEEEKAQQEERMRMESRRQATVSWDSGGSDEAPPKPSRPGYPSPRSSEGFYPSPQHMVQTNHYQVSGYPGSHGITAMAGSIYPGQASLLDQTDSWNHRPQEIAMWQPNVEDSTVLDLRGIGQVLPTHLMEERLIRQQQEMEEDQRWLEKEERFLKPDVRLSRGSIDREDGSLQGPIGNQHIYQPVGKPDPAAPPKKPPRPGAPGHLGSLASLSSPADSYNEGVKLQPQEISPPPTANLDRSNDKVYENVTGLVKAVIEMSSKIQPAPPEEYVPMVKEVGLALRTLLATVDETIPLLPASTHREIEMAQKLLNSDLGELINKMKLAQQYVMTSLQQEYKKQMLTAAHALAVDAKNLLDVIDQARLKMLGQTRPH
# EXPERIMENT: Inhibition of FAK at 10 uM
For each of the compounds below, state its inhibition.

These solved cases illustrate the format of a correct answer.
ITEM SMILES	inhibition
COc1ccc(-n2ncc3c2-c2ccccc2NC(=O)C3)cc1	< 40%
CC(C)(C)c1ccc(-n2ncc3c2-c2ccccc2NC(=O)C3)cc1	< 40%

Now for a further compound.
Query: Item O=C1Cc2cnn(-c3ccccc3)c2-c2ccccc2N1 has what recorded inhibition?
Reply: < 40%
